Ref: paper PMC10718076

Assay: in vitro
Conditions: both, human, s9, pH 7.4, t1/2
Where a name gives a salt, the structure may show the parent alone.
property: half-life at 2 µM

## Input I have this compound here, CC(C)NCC(O)COc1cccc2ccccc12 (racemic) [Propranolol, (+,-) Propranolol hydrochloride] , and I need its recorded half-life at 2 µM.
## Output ~5.93 h

----------
Experiment: Kinetic solubility in phosphate-buffered saline, pH 7.4
Assay type: physicochemical
Details: phosphate-buffered saline, 25 °C, pH 7.4, aqueous buffer, kinetic from dmso stock, Table S2, 2st batch; read-out: PBS solubility, pH 7.4, Mean
Method: Analysis of Aqueous Solubility […] compound (Ondansetron) were assessed for kinetic solubility in phosphate -buffered saline, pH 7.4. Phosphate buffered saline, pH 7.4 (Sigma -Aldrich, USA; Cat #P3813) […] The measurements were performed using SpectraMax Plus reader in UV -Vis mode. […] The measurements were performed using SpectraMax Paradigm reader in UV-Vis mode. […] calibration curves. […] 200 μl of each sample was transferred to 96-well plate and measured in 230-550 nm range with 5 nm step. […]
property: solubility at 2 h (µM)
Provide only the numeric value, understood in µM.

## Input Name the reported solubility at 2 h value associated with the compound O=C(NC1CC2CC1(c1ccc(Cl)cc1)C2)c1cccnc1Cl (stereo not drawn) [Compound 28]
## Output 35

## Input Next: Cn1cc(C(=O)NC2CC3CC2(c2cc(F)c(F)c(F)c2)C3)c(C(F)F)n1 (stereo not drawn) [Compound 30]
## Output 27

## Input Please answer likewise for Cn1cc(C(=O)NC2CC3CC2(c2ccc(Cl)c(Cl)c2)C3)c(C(F)F)n1 (stereo not drawn) [Compound 29]
## Output 4

----------
Test: Kinetic solubility in phosphate-buffered saline, pH 7.4
Assay type: physicochemical
Conditions: 25 °C, pH 7.4, aqueous buffer, kinetic from dmso stock
Procedure: Analysis of Aqueous Solubility […] compound (Ondansetron) were assessed for kinetic solubility in phosphate -buffered saline, pH 7.4. Phosphate buffered saline, pH 7.4 (Sigma -Aldrich, USA; Cat #P3813) […] The measurements were performed using SpectraMax Plus reader in UV -Vis mode. […] The measurements were performed using SpectraMax Paradigm reader in UV-Vis mode. […] calibration curves. […] 200 μl of each sample was transferred to 96-well plate and measured in 230-550 nm range with 5 nm step. […]
I'd appreciate it if you could supply solubility kinetic at 2 h values for the items below.
Field format: number, assumed µM, no unit text.

## Input # solubility kinetic at 2 h lookup, item Cc1nc2c([nH]1)-c1ccccc1N(C(=O)c1ccc(NC(=O)c3ccccc3-c3ccccc3)cc1)CC2
## Output 5

## Input Further, for O=C(NC1CCN(CCCCC2(C(=O)NCC(F)(F)F)c3ccccc3-c3ccccc32)CC1)c1ccccc1-c1ccc(C(F)(F)F)cc1 [Lomitapide, lomitapide] ?
## Output 3

## Input Entry Cn1cc(C(=O)Nc2ccccc2-c2cc(F)c(F)c(F)c2)c(C(F)F)n1 please
## Output 25

## Input Param item: O=C(NC1CCN(CCCCC2(C(=O)NCC(F)(F)F)c3ccccc3-c3ccccc32)CC1)C1CC2CC1(c1ccc(C(F)(F)F)cc1)C2 (stereo not drawn)
## Output 18

## Input Ok, now O=C(Nc1ccccc1-c1ccc(Cl)cc1)c1cccnc1Cl
## Output 11

## Input Also need Cc1nc2c([nH]1)CCN(C(=O)c1ccc(NC(=O)C3CC4CC3(c3ccccc3)C4)cc1)c1ccccc1-2 (stereo not drawn) , thanks.
## Output 14
